# credit: patent US10065937B2

# Subject of test: FLT3 receptor (Homo sapiens, UniProt P36888)
# Construct: Auto-phosphorylation assays were performed on RS4-11 cells that express endogenous FLT3 receptor; endogenous in cells; host or cells: RS4-11 cells
# Sequence (P36888 27-993): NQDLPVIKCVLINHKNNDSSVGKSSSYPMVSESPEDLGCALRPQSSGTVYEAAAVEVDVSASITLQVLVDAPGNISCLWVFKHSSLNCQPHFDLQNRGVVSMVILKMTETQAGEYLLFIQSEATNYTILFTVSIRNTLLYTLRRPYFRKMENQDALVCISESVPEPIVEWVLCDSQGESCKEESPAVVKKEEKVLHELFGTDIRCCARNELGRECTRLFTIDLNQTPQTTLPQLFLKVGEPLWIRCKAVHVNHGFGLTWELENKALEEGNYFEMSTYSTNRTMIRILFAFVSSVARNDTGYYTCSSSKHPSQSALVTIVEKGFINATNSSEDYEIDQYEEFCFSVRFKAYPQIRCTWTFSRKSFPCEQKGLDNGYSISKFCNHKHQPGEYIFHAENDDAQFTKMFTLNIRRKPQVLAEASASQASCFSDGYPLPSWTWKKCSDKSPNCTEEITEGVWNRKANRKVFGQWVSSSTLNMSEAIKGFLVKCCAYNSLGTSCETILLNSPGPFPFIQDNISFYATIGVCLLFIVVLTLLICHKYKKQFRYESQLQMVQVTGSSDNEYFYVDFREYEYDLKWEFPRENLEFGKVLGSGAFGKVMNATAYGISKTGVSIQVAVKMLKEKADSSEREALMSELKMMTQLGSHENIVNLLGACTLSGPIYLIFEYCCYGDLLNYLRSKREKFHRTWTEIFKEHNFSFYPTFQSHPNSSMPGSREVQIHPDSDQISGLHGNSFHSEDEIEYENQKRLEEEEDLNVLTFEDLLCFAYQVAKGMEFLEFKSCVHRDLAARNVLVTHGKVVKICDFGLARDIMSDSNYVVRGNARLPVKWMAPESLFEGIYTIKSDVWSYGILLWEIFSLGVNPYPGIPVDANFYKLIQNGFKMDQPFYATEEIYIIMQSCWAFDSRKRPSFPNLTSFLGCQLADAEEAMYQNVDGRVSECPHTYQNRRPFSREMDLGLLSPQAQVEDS
# Test name: Auto-phosphorylation competition assay on RS4-11 cells (HTRF)
# Assay type: cell-based
# Study conditions: RS4-11 cells expressing endogenous FLT3, 0.1 μM rh-FL; read-out: IC50, μM Autophosphorylation
# Protocol: Auto-Phosphorylation Assays Auto-phosphorylation assays were performed on RS4-11 cells that express endogenous FLT3 receptor. […] In the aim to discover antagonist compounds and to develop this assay, we were determined the efficiency of FL on RS4-11 cells. […] Signal was detected using an advanced fluorescence microplate reader (RUBYstar, BMG Labtech) equipped with a HTRF optic module allowing a donor excitation at 337 nm and a signal collection both at 665 nm and 620 nm. […]
Value type: IC50 (µM)
# output: bare number, implied unit µM

structure_string=O=C(Nc1cccc(S(=O)(=O)N2CCCCC2)c1)c1cc(Cl)ccc1O numeric_value=116
structure_string=O=C(Nc1cc(Cl)ccc1-c1nnn[nH]1)c1cccc(S(=O)(=O)N2CCCCC2)c1 numeric_value=148
structure_string=CN(C1CCCCCC1)S(=O)(=O)c1cccc(C(=O)Nc2cc(Cl)ccc2O)c1 numeric_value=41

Ask: Which value of IC50 has been reported for O=S(=O)(c1cccc(-c2nnc(-c3cc(Cl)ccc3O)[nH]2)c1)N1CCCCC1 in the records?
Reply: 20

Ask: Which value of IC50 has been reported for O=C(Nc1cc(Cl)ccc1O)c1cccc(S(=O)(=O)N2CCCCC2)c1 in the records?
Reply: 58

Ask: Which value of IC50 has been reported for O=S(=O)(c1cccc(-c2ncc(-c3cc(Cl)ccc3O)[nH]2)c1)N1CCCCC1 in the records?
Reply: 17

Ask: Which value of IC50 has been reported for NCCCN(C1CCCCC1)S(=O)(=O)c1cccc(-c2nc3cc(Cl)ccc3o2)c1 in the records?
Reply: 63

Ask: Which value of IC50 has been reported for O=S(=O)(c1cccc(-c2nc3cccc(O)c3[nH]2)c1)N1CCCCC1 in the records?
Reply: 68

----------
# Subject of test: SNAP tagged-FLT3 (Homo sapiens, UniProt P36888)
# Construct: expressed in transfected cells
# Sequence (P36888 27-993): as above
# Test name: Tag-lite competition binding assay (Red-FL displacement, HTRF)
# Study conditions: cells expressing SNAP tagged-FLT3, 0.5 nM Red-FL
Value type: IC50 (µM)
# output: bare number, implied unit µM

// solved cases for IC50 follow
compound="O=S(=O)(c1cccc(-c2ncc(-c3cc(Cl)ccc3O)[nH]2)c1)N1CCCCC1 [Example 5]" numeric_value=33
compound="O=S(=O)(c1cccc(-c2nc3cccc(O)c3[nH]2)c1)N1CCCCC1 [Example 8]" numeric_value=98
compound="NCCCN(C1CCCCC1)S(=O)(=O)c1cccc(-c2nc3cc(Cl)ccc3o2)c1 [Example 7]" numeric_value=10
compound="O=C(Nc1cc(Cl)ccc1-c1nnn[nH]1)c1cccc(S(=O)(=O)N2CCCCC2)c1 [Example 9]" numeric_value=175
compound="CN(C1CCCCCC1)S(=O)(=O)c1cccc(C(=O)Nc2cc(Cl)ccc2O)c1 [Example 11]" numeric_value=27.5
compound="O=C(Nc1cc(Cl)ccc1O)c1cccc(S(=O)(=O)N2CCCCC2)c1 [Example 1]" numeric_value=11.8
compound="O=S(=O)(c1cccc(-c2nnc(-c3cc(Cl)ccc3O)[nH]2)c1)N1CCCCC1 [Example 4]" numeric_value=26

Ask: Which value of IC50 has been reported for O=C(Nc1cccc(S(=O)(=O)N2CCCCC2)c1)c1cc(Cl)ccc1O [Example 10] in the records?
Reply: 4.6
